I'd appreciate it if you could supply IC50 (read off the curve), % Inhibition values for the items below.
tgt: human complement Component 5 (C5) (human, UniProt P01031 19-1676, limits assumed)
Sequence (P01031 19-1676 limits assumed): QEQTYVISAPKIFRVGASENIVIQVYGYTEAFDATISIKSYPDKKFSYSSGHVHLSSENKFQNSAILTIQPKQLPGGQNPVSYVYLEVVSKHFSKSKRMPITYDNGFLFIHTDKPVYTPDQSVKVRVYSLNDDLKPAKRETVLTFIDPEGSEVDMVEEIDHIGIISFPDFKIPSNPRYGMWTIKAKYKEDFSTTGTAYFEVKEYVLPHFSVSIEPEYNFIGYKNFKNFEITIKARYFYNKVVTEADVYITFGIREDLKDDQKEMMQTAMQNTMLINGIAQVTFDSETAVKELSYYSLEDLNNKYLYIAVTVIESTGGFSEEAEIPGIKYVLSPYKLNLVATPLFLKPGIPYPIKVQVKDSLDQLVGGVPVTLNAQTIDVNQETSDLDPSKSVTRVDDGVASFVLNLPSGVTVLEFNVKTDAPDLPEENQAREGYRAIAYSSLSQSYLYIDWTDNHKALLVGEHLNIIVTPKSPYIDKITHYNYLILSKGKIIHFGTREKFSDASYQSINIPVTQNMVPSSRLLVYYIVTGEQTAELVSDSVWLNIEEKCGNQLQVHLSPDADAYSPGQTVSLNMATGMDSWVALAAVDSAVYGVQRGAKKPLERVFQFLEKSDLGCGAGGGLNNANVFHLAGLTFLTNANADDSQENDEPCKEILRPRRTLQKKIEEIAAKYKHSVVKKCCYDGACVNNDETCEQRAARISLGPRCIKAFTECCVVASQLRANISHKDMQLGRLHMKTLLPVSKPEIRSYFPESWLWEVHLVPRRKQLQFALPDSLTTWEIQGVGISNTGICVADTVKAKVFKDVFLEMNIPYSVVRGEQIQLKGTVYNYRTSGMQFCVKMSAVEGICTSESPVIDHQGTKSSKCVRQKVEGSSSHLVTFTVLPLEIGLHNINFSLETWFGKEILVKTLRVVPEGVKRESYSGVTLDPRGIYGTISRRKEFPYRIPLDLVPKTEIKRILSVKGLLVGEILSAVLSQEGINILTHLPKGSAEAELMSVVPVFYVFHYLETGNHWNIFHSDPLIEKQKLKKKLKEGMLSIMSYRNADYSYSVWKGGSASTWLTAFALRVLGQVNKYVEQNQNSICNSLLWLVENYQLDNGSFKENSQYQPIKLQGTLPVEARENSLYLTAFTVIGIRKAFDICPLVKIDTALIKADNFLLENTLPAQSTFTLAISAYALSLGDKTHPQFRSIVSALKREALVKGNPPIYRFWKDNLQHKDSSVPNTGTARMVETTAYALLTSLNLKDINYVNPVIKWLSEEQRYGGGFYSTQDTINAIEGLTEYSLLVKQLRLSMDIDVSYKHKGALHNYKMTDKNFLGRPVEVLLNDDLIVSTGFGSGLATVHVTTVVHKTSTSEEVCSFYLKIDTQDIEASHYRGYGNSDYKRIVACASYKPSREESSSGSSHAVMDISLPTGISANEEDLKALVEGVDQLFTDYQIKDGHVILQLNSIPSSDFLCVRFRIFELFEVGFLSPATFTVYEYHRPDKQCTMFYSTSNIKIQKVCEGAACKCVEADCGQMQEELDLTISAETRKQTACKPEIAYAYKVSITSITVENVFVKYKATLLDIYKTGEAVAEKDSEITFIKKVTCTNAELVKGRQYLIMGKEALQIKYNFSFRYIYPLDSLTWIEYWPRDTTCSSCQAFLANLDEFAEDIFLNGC
assay-method-text: cell-based or functional assay

// H2L1-Fab (Fab, V domains shown) VH: EVQLVQSGAEVKKPGASVKVSCKASGYTFTDEYMNWVRQAPGKSLEWVGYINPNNGGADYNQKFQGRVTITVDQSASTAYMELSSLRSEDTAVYFCARLGYSNPYFDFWGQGTLVTVSS VL: DIVLTQSPDSLAVSLGERATINCKASQDVNTAVAWYQQKPDQSPKLLIYWASTRHTGVPARFTGSGSGTDYTLTISSLQAEDVAVYFCQQHHVSPWTFGGGTKVEIK : IC50 (read off the curve), % Inhibition value = ~2 µg/mL

// H1L4-Fab (Fab, V domains shown) VH: QVQLVQSGAEVKKPGASVKVSCKASGYTFTDEYMNWVRQAPGQSLEWMGYINPNNGGADYNQKFQGRVTMTVDQSISTAYMELSRLRSDDTAVYFCARLGYSNPYFDFWGQGTLVTVSS VL: DIVLTQSPATLSLSPGERATLSCRASQDVNTAVAWYQQKPGKSPKLLIYWASTRHTGVPARFTGSGSGTDYTLTISSLQPEDFAVYFCQQHHVSPWTFGGGTKVEIK : IC50 (read off the curve), % Inhibition value = ~2 µg/mL

// H1L2-Fab (Fab, V domains shown) VH: QVQLVQSGAEVKKPGASVKVSCKASGYTFTDEYMNWVRQAPGQSLEWMGYINPNNGGADYNQKFQGRVTMTVDQSISTAYMELSRLRSDDTAVYFCARLGYSNPYFDFWGQGTLVTVSS VL: DIVLTQSPATLSLSPGERATLSCRASQDVNTAVAWYQQKPDQSPKLLIYWASTRHTGVPARFTGSGSGTDYTLTISSLQPEDFAVYFCQQHHVSPWTFGGGTKVEIK : IC50 (read off the curve), % Inhibition value = ~2 µg/mL

Every entry's value here was drawn from patent US20250304667A1.
